# credit: PubChem BioAssay AID1863

experiment: PhoP-dependent GFP reporter repression – Salmonella Typhimurium, primary screen (AID 1863);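 also: 0% = low Mg2+ inducing control and 100% = high Mg2+ repressing control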; settings: S. Typhimurium PhoP-regulated promoter GFP reporter, 4 h; at 50 µM; hits give high values
About 480 (0.16%) of roughly 300,000 compounds were called active. These entries were drawn from the full list. Potency and affinity values are given separately.
Entries and their inhibition
Report as a plain number; the unit % is understood.

Here's what some known entries look like.
INSERT INTO measurements (molecule, uom, observedvalue) VALUES
  ('CCOc1ccc(N(CC(=O)NCCc2ccccc2)C(=O)c2csnn2)cc1', '%', 2.07),
  ('Cc1cc(C)c2ccc(NN)nc2c1O', '%', 0),
  ('O=C(OCc1ccc(COC(=O)c2ccccn2)cc1)c1ccccn1', '%', -1.35),
  ('COc1ccc(C(=O)c2no[n+]([O-])c2C(=O)c2ccc(OC)cc2)cc1', '%', -73.5),
  ('Oc1cccc2cc3cccc(O)c3c(O)c12', '%', 5.42);

Any idea what its inhibition is? The molecule is Cc1cc(C)cc(NC(=O)CN(C)S(=O)(=O)c2cccc3nsnc23)c1 -9.89

Likewise for CCOc1cc(C2C(C(=O)c3ccccc3)=C(C(=O)OC)Nc3nnnn32)ccc1O (configuration not stated) ? -7.95

Likewise for CCOC(=O)c1cn(Cc2ccccc2)c(C(=O)OC(C)(C)C)c1O ? 2.15

Likewise for O=[N+]([O-])c1cc2cccnc2c2ncccc12 ? -10.2

Likewise for COc1ccccc1N1CCN(C(=O)C(C)CS(=O)(=O)c2ccc3c(c2)NC(=O)CS3)CC1 (configuration not stated) ? -8.13

Likewise for O=C(O)c1cc2ccc3cccc4ccc(c1)c2c34 ? 7.13

Likewise for Cc1ccc(Cn2c(N)nc3ccccc32)cc1 ? 11.5

Likewise for Cc1cc(-c2nnc(SCC(=O)Nc3ccc(F)cc3F)n2N)n[nH]1 ? -6.5
